Provide the recorded pIC50 for the entries that follow.
molecular target: Apolipoprotein L1 (Homo sapiens); test: Inhibition of APOL1 G1 variant in human HEK293-T-REx cells measured by Thallium assay
pIC50: −log10 of the molar value.

# input pIC50 lookup needed for O=C([C@H]1C[C@H](c2c(-c3ccc(F)cc3)[nH]c3c(F)cc(F)cc32)C1)N1CCCCC1CO (some centres not stated) , thanks.
# output < 6.00

# input Value lookup for pIC50; key = CC(C)(CO)NC(=O)[C@H]1C[C@@H](c2c(-c3ccc(F)cc3)[nH]c3c(F)cc(F)cc32)C1
# output 9.60

# input Given the compound O=C(NC(CO)CO)[C@H]1C[C@@H](c2c(-c3ccc(F)cc3)[nH]c3c(F)cc(F)cc32)C1 , what is its reported pIC50?
# output < 6.00

# input Need pIC50 of O=C([C@H]1C[C@H](c2c(-c3ccc(F)cc3)[nH]c3c(F)cc(F)cc32)C1)N1CCO[C@H](CO)C1 , thanks.
# output < 6.00

# input Query (compound): O=C(NCCCO)[C@H]1C[C@H](c2c(-c3ccc(F)cc3)[nH]c3c(F)cc(F)cc32)C1 ; field requested: pIC50
# output 9.60

# input What value of pIC50 has been recorded for this entry: O=C(N[C@H]1COC[C@@H]1O)O[C@H]1C[C@H](c2c(-c3ccc(F)cc3)[nH]c3c(F)cc(F)cc32)C1
# output < 6.00

# input Fill blank: measured pIC50 of the compound O=C([C@H]1C[C@H](c2c(-c3ccc(F)cc3)[nH]c3c(F)cc(F)cc32)C1)N1CCCC1CCO (some centres not stated) is ____.
# output < 6.00

# input GET /values?readout=pIC50&item= CC(C)(NCC1CC(c2c(-c3ccc(F)cc3)[nH]c3c(F)cc(F)cc23)C1)C(N)=O (configuration not stated)
# output < 6.00

# input Item CC1CC(NC(=O)NC[C@H]2C[C@H](c3c(-c4ccc(F)cc4)[nH]c4c(F)cc(F)cc43)C2)C(=O)O1 (some centres not stated) has what recorded pIC50?
# output < 6.00

# input # lookup: pIC50 of CCOCC1(CNC(=O)[C@H]2C[C@H](c3c(-c4ccc(F)cc4)[nH]c4c(F)cc(F)cc43)C2)CC1
# output < 6.00

# input Endpoint output: pIC50 of CN(CC1CC(c2c(-c3ccc(F)cc3)[nH]c3c(F)cc(F)cc23)C1)C(=O)NCCO (configuration not stated) . Value?
# output < 6.00

# input Value lookup for pIC50; key = O=C(NC1(CO)CCOC1)[C@H]1C[C@H](c2c(-c3ccc(F)cc3)[nH]c3c(F)cc(F)cc32)C1 (some centres not stated)
# output > 6.60

# input Dear colleague, I am looking for the recorded pIC50 of the following compound: Cc1ccc(CNC(=O)O[C@H]2C[C@H](c3c(-c4ccc(F)cc4)[nH]c4c(F)cc(F)cc43)C2)o1
# output < 6.00

# input Quick one: pIC50 of O=C(NC1CCNC1=O)N[C@H]1C[C@H](c2c(-c3ccc(F)cc3)[nH]c3c(F)cc(F)cc32)C1 (some centres not stated) ?
# output < 6.00

# input Returns the measured pIC50 for the input compound. Input: O=C(NCc1cocn1)C1CC(Cc2c(-c3ccc(F)cc3)[nH]c3c(F)cc(F)cc23)C1 (configuration not stated)
# output < 6.00

# input Could you tell me which pIC50 is on file for CCN(C(=O)[C@H]1C[C@H](c2c(-c3ccc(F)cc3)[nH]c3c(F)cc(F)cc32)C1)C(C)CO (some centres not stated) ?
# output < 6.00

# input Item CCN(CCO)C(=O)[C@H]1C[C@H](c2c(-c3ccc(F)cc3)[nH]c3c(F)cc(F)cc32)C1 has what recorded pIC50?
# output 9.60

Just for reference, ChEMBL document CHEMBL5052856 is where these values come from.
